# method summary: Probe fluorescence ratio response to linolenic acid relative to ADIFAB2
# Type: binding
# test settings: Table 5
experimental endpoint: ΔR/DRAΔ2 LNA
Please state the value as a number alone, without comment.

I am curious: what ΔR/DRAΔ2 LNA value has been reported for L2P22H10: FABP probe, substitutions M18I F55G A73M vs SEQ ID NO: 2 (protein, listed as Rattus norvegicus, PEPTIDE (1)...(131) wild-type rat intestinal fatty acid binding protein) AFDGTWKVDRNENYEKFIEKMGINVVKRKLGAHDNLKLTITQEGNKFTVKESSNGRNIDVVFELGVDFAYSLMDGTELTGTWTMEGNKLVGKFKRVDNGKELIAVREISGNELIQTYTYEGVEAKRIFKKE ?
1.3

# iterate: L2P9E12: FABP probe, substitutions M18L F55L A73I vs SEQ ID NO: 2 (protein, listed as Rattus norvegicus, PEPTIDE (1)...(131) wild-type rat intestinal fatty acid binding protein) AFDGTWKVDRNENYEKFLEKMGINVVKRKLGAHDNLKLTITQEGNKFTVKESSNLRNIDVVFELGVDFAYSLIDGTELTGTWTMEGNKLVGKFKRVDNGKELIAVREISGNELIQTYTYEGVEAKRIFKKE
0.9

Origin of values: patent US20060257938A1
